Tested on: HL-60(TB) leukemia
Assay: NCI tumour cell line growth inhibition, 48 h; in the data active = GI50 below about 0.43 µM; inactive = the rest
Reply using exactly one outcome from active, inactive

[Q] Name the outcome recorded for O=C1/C(=C/c2ccc([N+](=O)[O-])o2)Oc2ccc(Cl)cc21 in the assay.
[A] inactive

[Q] Lab log entry: COC(=O)c1cc(-c2ccc(S(C)(=O)=O)cc2)[nH]c1N/N=C/c1c(Cl)cccc1Cl — outcome as called in the assay?
[A] inactive

[Q] Any idea what this test logged for FC(F)(F)c1cccc(-c2[nH]ncc2-c2nnnn2-c2ccccc2)c1 ?
[A] inactive

[Q] For this molecule, state the assay outcome: CC(=O)c1c(C)c2cnc(Nc3ccc(N4CCNCC4)cn3)nc2n(C2CCCC2)c1=O
[A] inactive

[Q] Recorded test call requested for COc1ccc(-c2[nH]ncc2Nc2cc(OC)c(OC)c(OC)c2)cc1
[A] active

[Q] Given COc1cnccc1Nc1nc(-c2nn(Cc3c(F)cc(OCCO)cc3F)c3ccccc23)ncc1OC , state the outcome it received in this test.
[A] inactive

Recorded values, source PubChem BioAssay (NCI).
